Measured inhibition values are reported for all entries that follow.
Experiment: Inhibition of recombinant NDM-1 (unknown origin) using fluorocillin as substrate at 10 uM incubated for 30 mins by fluorescence based assay
Settings: Bacteria

// `CCNCc1cc([N+](=O)[O-])c2cccnc2c1O` : inhibition value = 40%

Input `Nc1c([N+](=O)[O-])cc([N+](=O)[O-])c2cccnc12` . Output inhibition: < 20%

// `O=[N+]([O-])c1ccc(O)c2ccccc12` : inhibition value = < 20%

Recorded inhibition (molecule `N#Cc1ccc2c([N+](=O)[O-])cc([N+](=O)[O-])c(O)c2n1` ): < 20%

Entry under test: `O=[N+]([O-])c1cc([N+](=O)[O-])c2cccnc2c1O` . Its inhibition was < 20%

inhibition recorded for this molecule, `O=C(O)CN(CCN(CC(=O)O)CC(=O)O)CC(=O)O` , is 87%

# inhibition (molecule: `N#CCN(Cc1ccccc1)C(=O)c1ccc2cccc(O)c2n1` ) is < 20%

Query `Nc1c(O)cc(S(=O)(=O)O)c2ccccc12` yields inhibition of < 20%

Entry `O=C(O)c1cc(O)c2ncccc2c1` — recorded inhibition = < 20%

inhibition reported for this molecule `O=C(O)C[C@H](NCCN[C@@H](CC(=O)O)C(=O)O)C(=O)O` : 84%

molecule `c1cnc2c(c1)ccc1cccnc12` , inhibition observed: < 20%

Measured inhibition of `CN(C)Cc1ccc2c([N+](=O)[O-])ccc(O)c2n1` : < 20%

* * *

Each entry below lists one item and its recorded inhibition value.
Tested on: Bacteria
Assay: Inhibition of recombinant VIM-1 (unknown origin) using fluorocillin as substrate at 10 uM incubated for 30 mins by fluorescence based assay
Write the figure, then the unit, nothing else.

ENTRY SMILES: N#CCNCc1cc([N+](=O)[O-])c2cccnc2c1O
inhibition: 99%
--
ENTRY SMILES: N#CCN(Cc1ccccc1)Cc1cc([N+](=O)[O-])c2cccnc2c1O
inhibition: 100%
--
ENTRY SMILES: O=C(O)c1ccc2c([N+](=O)[O-])ccc(O)c2n1
inhibition: 99%
--
ENTRY SMILES: O=[N+]([O-])c1ccc(O)c2ncccc12
inhibition: 31%
--
ENTRY SMILES: CN(CC#N)Cc1ccc2c([N+](=O)[O-])ccc(O)c2n1
inhibition: 53%

`O=C(O)c1ccc2c([N+](=O)[O-])cc([N+](=O)[O-])c(O)c2n1` has a reported inhibition of 57%

Form: molecule = `Cc1ccc2c(Cl)cc(Cl)c(O)c2n1` ; inhibition = 58%

* * *

# reported inhibition; entries follow
Assay: Inhibition of recombinant NDM-1 (unknown origin) using fluorocillin as substrate at 30 uM incubated for 30 mins by fluorescence based assay
Conditions: Bacteria

Reference set (3 entries):
ENTRY SMILES: O=C(O)c1ccc2c([N+](=O)[O-])cc([N+](=O)[O-])c(O)c2n1
inhibition: 96%
--
ENTRY SMILES: N#Cc1ccc2cccc(O)c2n1
inhibition: < 20%
--
ENTRY SMILES: CN(C)Cc1ccc2c([N+](=O)[O-])ccc(O)c2n1
inhibition: < 20%

Entry `Oc1c(Cl)cc(Cl)c2cccnc12` — recorded inhibition = 99%

Entry under test: `Cc1ccc2cccc(O)c2n1` . Its inhibition was < 20%

inhibition measured on `Nc1c(O)cc(S(=O)(=O)O)c2ccccc12` = < 20%

`Cc1ccc2c([N+](=O)[O-])cc([N+](=O)[O-])c(O)c2n1` yielded inhibition of < 20%

So, `Oc1ccc(F)c2cccnc12` ? Its inhibition was < 20%
